Assay: In vitro metabolic stability assay
Type: in vitro ADME, human
Conditions: pH 7.4; human liver microsomes 0.5 mg/mL, 1 mM NADPH, 10 μM compound, 37 °C, n = 3; read-out: in vitro metabolic half-life t1/2
endpoint: half-life at 10 μM (min)
Numbers only; they are read as min.

Reference set (2 entries):
• Cc1cc(S(=O)(=O)NC(=N)n2ccn(C)c2=S)c(SCc2cccc3ccccc23)cc1Cl = 13.9
• Cc1cc(S(=O)(=O)NC(=N)n2ccn(C)c2=S)c(SCc2cc3c(cc2Cl)OCO3)cc1Cl = 20.3

Next, consider the following compound.
Consider the compound Cc1cc(S(=O)(=O)NC(=N)n2ccn(C)c2=S)c(SCc2ccc(Cl)cc2)cc1Cl . State its measured half-life at 10 μM.
9.1

The reported numbers originate from paper PMC10253812.
